# credit: patent US20080234188A1

Assay: Hydrophobicity (hydropathy) from reverse-phase HPLC retention scale
Type: physicochemical
Conditions: Table 1
Protocol: The “hydrophobicity value” of an amino acid residue means the hydrophobicity value of that residue as shown in Table 1 or as calculated by the method described herein. […] The hydrophobicity value shown for each amino acid in Table 1 as “hydropathy” may be used as the hydrophobicity value for that amino acid in any peptide whose hydrophobicity value has to be calculated. […] The retention time of each peptide was determined on a C4 reversed-phase column (4.6×250 mm, 300 A pore size, 10 μ particle size). […]
Where no end group is shown, it is not given here.
# strict inequality: Mean residue hydropathy of X-residue peptide < -0.04 yields YES, everything else yields NO

{"substance": "Glu: KKAAAXAAAAAXAAWAAXAAAKKKK-amide peptide with X-residue Glu (KKAAAEAAAAAEAAWAAEAAAKKKK-NH2)", "cat": "NO"}
{"substance": "K25: KKAAAXAAAAAXAAWAAXAAAKKKK-amide peptide with X = Lys, most hydrophilic peptide tested (KKAAAKAAAAAKAAWAAKAAAKKKK-NH2) [Peptide K25]", "cat": "YES"}
{"substance": "His: KKAAAXAAAAAXAAWAAXAAAKKKK-amide peptide with X-residue His (X = His; C-terminal amide)", "cat": "YES"}
{"substance": "Pro: KKAAAXAAAAAXAAWAAXAAAKKKK-amide peptide with X-residue Pro (KKAAAPAAAAAPAAWAAPAAAKKKK-NH2)", "cat": "YES"}

q: Please check: Mean residue hydropathy of X-residue peptide for Asp: KKAAAXAAAAAXAAWAAXAAAKKKK-amide peptide with X-residue Asp (KKAAADAAAAADAAWAADAAAKKKK-NH2) , strictly under -0.04 or not?
a: NO

###

system: Rabbit RBC; type: cell-based
Where a SMILES comes first, the peptide text is derived from it.
measured.attribute: Rabbit RBC (% lysis) 200 μM
Your answer is read as % lysis, so omit the unit and give the number.

q: Give measured Rabbit RBC (% lysis) 200 μM for C[C@H](NC(=O)[C@H](C)NC(=O)[C@H](Cc1ccccc1)NC(=O)[C@H](C)NC(=O)[C@H](C)NC(=O)[C@H](Cc1c[nH]c2ccccc12)NC(=O)[C@H](C)NC(=O)[C@H](C)NC(=O)[C@H](Cc1ccccc1)NC(=O)[C@H](C)NC(=O)[C@H](C)NC(=O)[C@H](CCCCN)NC(=O)[C@H](CCCCN)NC(=O)[C@H](CCCCN)NC(=O)[C@H](CCCCN)NC(=O)[C@H](CCCCN)NC(=O)[C@@H](N)CCCCN)C(N)=O [F17(K6), KKKKKKAAFAAWAAFAA-NH2] (H-KKKKKKAAFAAWAAFAA-NH2; N-terminus assumed) (Rabbit RBC).
a: 1

###

Examples of compounds with documented Rabbit RBC (% lysis) 50 μM follow.
system: Rabbit RBC; type: cell-based
Where a SMILES comes first, the peptide text is derived from it.

{"compound": "C[C@H](NC(=O)[C@H](C)NC(=O)[C@H](Cc1ccccc1)NC(=O)[C@H](C)NC(=O)[C@H](C)NC(=O)[C@H](Cc1ccccc1)NC(=O)[C@H](C)NC(=O)[C@H](C)NC(=O)[C@H](Cc1ccccc1)NC(=O)[C@H](C)NC(=O)[C@H](C)NC(=O)[C@H](CCCCN)NC(=O)[C@H](CCCCN)NC(=O)[C@H](CCCCN)NC(=O)[C@H](CCCCN)NC(=O)[C@H](CCCCN)NC(=O)[C@@H](N)CCCCN)C(N)=O [Peptide 3F17-6K, KKKKKKAAFAAFAAFAA-NH2] (H-KKKKKKAAFAAFAAFAA-NH2; N-terminus assumed)", "Rabbit RBC (% lysis) 50 μM": "0 % lysis"}

Next, consider the following compound.
q: Give a short answer stating reported Rabbit RBC (% lysis) 50 μM for C[C@H](NC(=O)[C@H](C)NC(=O)[C@H](Cc1c[nH]c2ccccc12)NC(=O)[C@H](C)NC(=O)[C@H](C)NC(=O)[C@H](Cc1c[nH]c2ccccc12)NC(=O)[C@H](C)NC(=O)[C@H](C)NC(=O)[C@H](Cc1c[nH]c2ccccc12)NC(=O)[C@H](C)NC(=O)[C@H](C)NC(=O)[C@H](CCCCN)NC(=O)[C@H](CCCCN)NC(=O)[C@H](CCCCN)NC(=O)[C@H](CCCCN)NC(=O)[C@H](CCCCN)NC(=O)[C@@H](N)CCCCN)C(N)=O [Peptide W17-6K, KKKKKKAAWAAWAAWAA-NH2] (H-KKKKKKAAWAAWAAWAA-NH2; N-terminus assumed) .
a: 0 % lysis

###

tested on: Human RBC; assay type: cell-based
Where a SMILES comes first, the peptide text is derived from it.
measured.attribute: Human RBC (% lysis) 200 μM
Report field: quantity (unit follows the number).

q: Give a short answer stating reported Human RBC (% lysis) 200 μM for C[C@H](NC(=O)[C@H](C)NC(=O)[C@H](Cc1ccccc1)NC(=O)[C@H](C)NC(=O)[C@H](C)NC(=O)[C@H](Cc1c[nH]c2ccccc12)NC(=O)[C@H](C)NC(=O)[C@H](C)NC(=O)[C@H](Cc1ccccc1)NC(=O)[C@H](C)NC(=O)[C@H](C)NC(=O)[C@H](CCCCN)NC(=O)[C@H](CCCCN)NC(=O)[C@H](CCCCN)NC(=O)[C@H](CCCCN)NC(=O)[C@H](CCCCN)NC(=O)[C@@H](N)CCCCN)C(N)=O [F17(K6), KKKKKKAAFAAWAAFAA-NH2] (H-KKKKKKAAFAAWAAFAA-NH2; N-terminus assumed) .
a: 0 % lysis

###

Examples of compounds with documented MIC S. epidermidis C621 follow.
tested on: Staphylococcus epidermidis (C621); type: cell-based; settings: C621
Where a SMILES comes first, the peptide text is derived from it.
Your answer is read as µM, so omit the unit and give the number.

{"compound": "C[C@H](NC(=O)[C@H](C)NC(=O)[C@H](Cc1ccccc1)NC(=O)[C@H](C)NC(=O)[C@H](C)NC(=O)[C@H](Cc1c[nH]c2ccccc12)NC(=O)[C@H](C)NC(=O)[C@H](C)NC(=O)[C@H](Cc1ccccc1)NC(=O)[C@H](C)NC(=O)[C@H](C)NC(=O)[C@H](CCCCN)NC(=O)[C@H](CCCCN)NC(=O)[C@H](CCCCN)NC(=O)[C@H](CCCCN)NC(=O)[C@H](CCCCN)NC(=O)[C@@H](N)CCCCN)C(N)=O [F17(K6), KKKKKKAAFAAWAAFAA-NH2] (H-KKKKKKAAFAAWAAFAA-NH2; N-terminus assumed)", "target.desc": "Staphylococcus epidermidis (C621)", "measured.attribute": "MIC S. epidermidis C621", "unit.abbreviation": "µM", "endpoint.value": 4}

q: Give a short answer stating reported MIC S. epidermidis C621 for C[C@H](NC(=O)[C@H](C)NC(=O)[C@H](Cc1c[nH]c2ccccc12)NC(=O)[C@H](C)NC(=O)[C@H](C)NC(=O)[C@H](Cc1c[nH]c2ccccc12)NC(=O)[C@H](C)NC(=O)[C@H](C)NC(=O)[C@H](Cc1c[nH]c2ccccc12)NC(=O)[C@H](C)NC(=O)[C@H](C)NC(=O)[C@H](CCCCN)NC(=O)[C@H](CCCCN)NC(=O)[C@H](CCCCN)NC(=O)[C@H](CCCCN)NC(=O)[C@H](CCCCN)NC(=O)[C@@H](N)CCCCN)C(N)=O [Peptide W17-6K, KKKKKKAAWAAWAAWAA-NH2] (H-KKKKKKAAWAAWAAWAA-NH2; N-terminus assumed) .
a: 8

###

Examples of compounds with documented MIC E. faecalis ATCC29212 follow.
test system: E. faecalis ATCC29212; type: cell-based, Enterococcus faecalis
Where a SMILES comes first, the peptide text is derived from it.

Some solved entries appear below for comparison.
{"compound": "C[C@H](NC(=O)[C@H](C)NC(=O)[C@H](Cc1ccccc1)NC(=O)[C@H](C)NC(=O)[C@H](C)NC(=O)[C@H](Cc1ccccc1)NC(=O)[C@H](C)NC(=O)[C@H](C)NC(=O)[C@H](Cc1ccccc1)NC(=O)[C@H](C)NC(=O)[C@H](C)NC(=O)[C@H](CCCCN)NC(=O)[C@H](CCCCN)NC(=O)[C@H](CCCCN)NC(=O)[C@H](CCCCN)NC(=O)[C@H](CCCCN)NC(=O)[C@@H](N)CCCCN)C(N)=O [Peptide 3F17-6K, KKKKKKAAFAAFAAFAA-NH2] (H-KKKKKKAAFAAFAAFAA-NH2; N-terminus assumed)", "MIC E. faecalis ATCC29212": ">32 µM"}
{"compound": "C[C@H](NC(=O)[C@H](C)NC(=O)[C@H](Cc1c[nH]c2ccccc12)NC(=O)[C@H](C)NC(=O)[C@H](C)NC(=O)[C@H](Cc1c[nH]c2ccccc12)NC(=O)[C@H](C)NC(=O)[C@H](C)NC(=O)[C@H](Cc1c[nH]c2ccccc12)NC(=O)[C@H](C)NC(=O)[C@H](C)NC(=O)[C@H](CCCCN)NC(=O)[C@H](CCCCN)NC(=O)[C@H](CCCCN)NC(=O)[C@H](CCCCN)NC(=O)[C@H](CCCCN)NC(=O)[C@@H](N)CCCCN)C(N)=O [Peptide W17-6K, KKKKKKAAWAAWAAWAA-NH2] (H-KKKKKKAAWAAWAAWAA-NH2; N-terminus assumed)", "MIC E. faecalis ATCC29212": ">32 µM"}

Next, consider the following compound.
q: Give measured MIC E. faecalis ATCC29212 for C[C@H](NC(=O)[C@H](C)NC(=O)[C@H](Cc1ccccc1)NC(=O)[C@H](C)NC(=O)[C@H](C)NC(=O)[C@H](Cc1c[nH]c2ccccc12)NC(=O)[C@H](C)NC(=O)[C@H](C)NC(=O)[C@H](Cc1ccccc1)NC(=O)[C@H](C)NC(=O)[C@H](C)NC(=O)[C@H](CCCCN)NC(=O)[C@H](CCCCN)NC(=O)[C@H](CCCCN)NC(=O)[C@H](CCCCN)NC(=O)[C@H](CCCCN)NC(=O)[C@@H](N)CCCCN)C(N)=O [F17(K6), KKKKKKAAFAAWAAFAA-NH2] (H-KKKKKKAAFAAWAAFAA-NH2; N-terminus assumed) (E. faecalis ATCC29212).
a: >32 µM
